Experiment: qHTS of Trypanosoma Brucei Inhibitors: LOPAC Validation (AID 624147)
Settings: purified enzyme assay, luminescence, 45 min; series mostly up to 57.5 µM
Results filed as inconclusive are left out. Active and inactive are the calls of the source. Calls follow the shape of the dose curve; as a rule, active = well fitted inhibition curve with a large enough effect; inconclusive = small, poorly fitted or top-dose-only effect; inactive = flat fitted curve, though single readings scatter.
RESULT TYPE: outcome

Some solved entries appear below for comparison.
O=C(O)CN(CCN(CC(=O)O)CC(=O)O)CCN(CC(=O)O)CC(=O)O :: inactive
Cc1nc2c([nH]1)c(=O)n(C)c(=O)n2Cc1ccco1 :: inactive
CN(C)C(=O)Oc1cccc([N+](C)(C)C)c1 :: inactive
Cc1nnc(SCC2=C(C(=O)O)N3C(=O)[C@@H](NC(=O)Cn4cnnn4)[C@H]3SC2)s1 :: inactive

Provide each entry's outcome from the list below.
1. CCCCNC(=O)NS(=O)(=O)c1ccc(C)cc1
2. CCN(CC)CC(=O)Nc1c(C)cccc1C

OUT:
1: inactive; 2: inactive

----------
System: PAD
Experiment: qHTS profiling for inhibitors of Plasmodium falciparum proliferation (AID 504749); also: nearly all actives have a fitted effect of over 60% in size
Details: P. falciparum in erythrocytes, SYBR Green DNA, 72 h; series mostly up to 28.7 µM
Protocol: NIH National Institute of Allergy and Infectious Diseases [NIAID] NIH Chemical Genomics Center [NCGC] […] Because mature erythrocytes lack DNA, only Plasmodium-derived DNA is detected. NCGC Assay Protocol Summary: The SYBR Green viability assay was adapted from a method described previously (Plouffe et al., 2008). […] The following morning, fluorescence intensity at 485(14) nm excitation and 535(25) nm emission wavelengths was measured on an EnVision (Perkin Elmer) plate reader. […]
Records with an inconclusive call do not appear. Active and inactive are the calls of the source. Calls follow the shape of the dose curve; as a rule, active = well fitted inhibition curve with a large enough effect; inconclusive = small, poorly fitted or top-dose-only effect; inactive = flat fitted curve, though single readings scatter.
Hi there, use one of these labels in your reply, thanks! active, inactive

Some entries whose results are on file:
CC1=C(C)C(=O)C(CCCCC#CCCCC#CCO)=C(C)C1=O :: active
O=C(O)CCCCCCCC(=O)O :: inactive
CC(=O)Nc1nnc(S(N)(=O)=O)s1 :: inactive
CCN(CC)CCCN(c1ccccc1)C1Cc2ccccc2C1 :: active
CCn1cc(C(=O)O)c(=O)c2cc3c(cc21)OCO3 :: inactive

IN: What classification did O=C(O)CN(CCN(CC(=O)O)CC(=O)O)CCN(CC(=O)O)CC(=O)O end up with in this test?
OUT: inactive

----------
Assay: qHTS for differential inhibitors of proliferation of Plasmodium falciparum line D10 (AID 1877);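 also: parasites grown with compound for 72 h before DNA staining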
Conditions: series mostly up to 28.7 µM
Records with an inconclusive call do not appear. Calls of active or inactive are those of the source. Calls follow the shape of the dose curve; as a rule, active = well fitted curve in the direction sought with a large enough effect; inconclusive = small, poorly fitted or top-dose-only effect, or another doubt; inactive = no such curve, though single readings can be large or run the other way.
The categories you may choose from are active, inactive

Below, 5 molecules whose answers are already recorded.
C[N+](C)(C)CCOC(N)=O :: inactive
Cc1ccc(Cl)c(Nc2ccccc2C(=O)O)c1Cl :: inactive
FC(F)(F)c1ccccc1-n1ccnc1 :: inactive
C[n+]1cc2c3c(ccc2c2ccc4cc5c(cc4c21)OCO5)OCO3 :: active
CCCN(CCC)C(=O)C(CCC(=O)O)NC(=O)c1ccccc1 (stereo not given) :: inactive

IN: Entry CC(C)(C)NCC(O)c1cc(O)cc(O)c1 (stereo not given) : call = ?
OUT: inactive

IN: Each molecule tested received a call. Report the one for CCN1CCC[C@H]1CNC(=O)c1c(O)c(Cl)cc(Cl)c1OC .
OUT: inactive

IN: Which outcome was entered for the molecule NCCCNCCSP(=O)(O)O in this test?
OUT: inactive
